B1: TPR 5TU (parent)
chain: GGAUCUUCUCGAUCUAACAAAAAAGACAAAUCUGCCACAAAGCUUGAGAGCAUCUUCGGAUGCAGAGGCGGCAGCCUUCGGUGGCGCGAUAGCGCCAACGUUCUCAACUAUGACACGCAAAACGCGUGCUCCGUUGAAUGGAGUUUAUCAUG

Variants of: B1
method: polymerase ribozyme fitness, log enrichment relative to wild type (log ratio); higher = more active; in vitro selection for triplet polymerase activity
Fewer inactive variants are shown than the library holds.
metric.name: polymerase ribozyme fitness (log ratio)

Provide polymerase ribozyme fitness (log ratio) values for the following items, in order.
1. G68C G88U U104G C114U U127C
2. C32A A39U C79A C85A C129G
3. A20U C27A U31G A40G G42U C96G A97G
4. U7A G11A A41G A66C U77C C85U A106C U151A
5. G42A C54G U82C G94U

≤ -4.2
≤ -4.2
≤ -4.2
≤ -4.2
≤ -4.2

Report polymerase ribozyme fitness (log ratio) for each item below.
1. G11A A24G A41U C51A G59A G80A G84U U90A
2. U4A C35G G46A C75G G94C C105G
3. A21G A39U G83A U90G G92C C108G
4. C18G A52C C93G

["≤ -4.2", "≤ -4.2", "≤ -4.2", "≤ -4.2"]

Count: 2. Required value per item: polymerase ribozyme fitness (log ratio).
1. U7A C14U U31A C57G U61A A89U U90C C99A A115U A122C
2. U44A U45A C51U C95A C103G

["≤ -4.2", "≤ -4.2"]
